Procedure summary: self-splicing fitness, log relative to wild type (ln ratio); higher = more splicing; Tetrahymena group I intron in knt gene, E. coli kanamycin selection, DiMSum; sequences stand for … in CUCUCU…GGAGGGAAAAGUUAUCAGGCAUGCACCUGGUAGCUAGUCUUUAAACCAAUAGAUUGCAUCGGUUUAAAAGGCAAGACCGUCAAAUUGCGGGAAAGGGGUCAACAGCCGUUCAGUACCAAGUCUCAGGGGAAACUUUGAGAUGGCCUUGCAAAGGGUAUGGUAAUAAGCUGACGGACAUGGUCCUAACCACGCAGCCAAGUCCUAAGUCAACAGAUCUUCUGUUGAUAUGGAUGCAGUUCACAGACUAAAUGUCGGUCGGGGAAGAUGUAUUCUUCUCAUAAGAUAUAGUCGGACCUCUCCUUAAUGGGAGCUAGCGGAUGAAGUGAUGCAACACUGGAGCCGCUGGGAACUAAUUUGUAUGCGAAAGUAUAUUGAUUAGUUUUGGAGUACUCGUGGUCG;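 further: selection with 25 µg/mL kanamycin versus none on LB agar overnight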
Measurement parameters: 30 °C
Recorded metric: self-splicing fitness (ln)
No unit in the answer, please; the number alone is enough.

{"Chain sequence": "AGCCAGCAAUAUUACGUCAA", "self-splicing fitness (ln)": -3.18}
{"Chain sequence": "GCCUAGCAAUAUUACGGAAA", "self-splicing fitness (ln)": -0.507}
{"Chain sequence": "AUCAAGCAAUAUUACGAGCA", "self-splicing fitness (ln)": -1.3}
{"Chain sequence": "AUGCAGCAAUAUUACGCUCG", "self-splicing fitness (ln)": -1.89}
{"Chain sequence": "AUGAAGCAAUAUUACGCUAU", "self-splicing fitness (ln)": -1.47}

Would you kindly look at the next entry?
**Query** Quick one: self-splicing fitness (ln) of "AUCUAGCAAUAUUACGAAGU" ?
**Result** -0.522
